test: Toxicity against Artemia salina L EACH; assay type: organism-based; conditions: in vivo
METRIC: LC50 (mg/L)
// units = mg/L; emit number, no label

Supply reported LC50 belonging to this compound: CC(C)CCC[C@@H](C)COS(=O)(=O)[O-].[Na+]
17.8
